Parameter: apparent KD of MS2 coat protein. Scope: all listed entries.
Tested on: MS2 coat protein
Assay: apparent KD of MS2 coat protein; designed switch direction (-1 OFF switch, 1 ON switch): -1; higher = weaker reporter binding
Conditions: input ligand: FMN 200 uM
State just the number; it will be interpreted in nM.

Example sequences with recorded apparent KD of MS2 coat protein:
ordered_residues: CUUUUUGUCGAGGAUAUGCACCAGCUCACUGACGCAGAAGGCGACACAUGAGGAUCACCCAUGUCAGUUCGCGU [salish99_ex6_r004_433] (Eterna round: R97, puzzle: Exclusion 6)
apparent KD of MS2 coat protein / nM: 35.3

ordered_residues: GGCUGACGCGGUAGGCCUUACAUGAGGAUCACCCAUGUCGAUGCCAUUCCAAAACACGGGUUUGAGGUUCGUCAUUG [Eternabot (L1) Solution 46] (Eterna round: R97, puzzle: Sensor, turn-off variant 1)
apparent KD of MS2 coat protein / nM: 99.7

ordered_residues: AUAAUGUGAGGAUAUCAGUCGACUAGCUUCGGCUAGUCGACUGAGAAGGUACAUGAGGAUCACCCAUGUGGUUC [E4/11-B1] (Eterna round: R97, puzzle: Exclusion 4)
apparent KD of MS2 coat protein / nM: 885

ordered_residues: UAUAUAUAGUAAGGAUAUGUAUAUAUUUUAUAGACAGAAGGUACUGACAUGAGGAUCACCCAUGUUUUAGUGUGGGCAUGUAGA [JMF's solution 72] (Eterna round: R96, puzzle: Exclusion NG 1)
apparent KD of MS2 coat protein / nM: 105

ordered_residues: CAGUACUGAGGAUAUACAUGAGGAUCACCCAUGUGUACCAGCUAGGAAACUAGCAAAAGUAGAAGGCAGUACUG [828 mod 2 m10] (Eterna round: R97, puzzle: Exclusion 3)
apparent KD of MS2 coat protein / nM: 32.6

Challenge: Which apparent KD of MS2 coat protein value belongs to ACAUGUAAUGCAGGAUAUGGGACACAUGAGGAUCACCCAUGUUACCAUAUGUAAUGCUAAGAGUCUCAGAAGGGUAUGUACAUG [Ex NG2 #47] (Eterna round: R96, puzzle: Exclusion NG 2) ?
Response given: 8.6

Challenge: Which apparent KD of MS2 coat protein value belongs to CUUAGUUGGUAAGGAUAUCCUACAUUAUUCUGACCCGUGCAAGCUACAUGAGGAUCACCCAUGUGGGAGAAGGUGCGUUAAUGU [Design 6] (Eterna round: R96, puzzle: Exclusion NG 2) ?
Response given: 18.4

Challenge: Which apparent KD of MS2 coat protein value belongs to CAAACCUCAGGAUAUCGAGACUCGGACAUGAGGAUCACCCAUGUGAGGCUCGUGAGUCCACGAGAAGGGAGGAGCA [Eternabot (Original) Solution 38] (Eterna round: R97, puzzle: Exclusion 5) ?
Response given: 26.1

Challenge: Which apparent KD of MS2 coat protein value belongs to AACUAAACAUGAGGAUAUGCCUGGGAAGAACAGGCAGAAGGCGUGACAUGAGGAUCACCCAUGUAGCCGGGCUAUUCUCAUGCG [Cediceor] (Eterna round: R96, puzzle: Exclusion NG 1) ?
Response given: 25.3

Challenge: Which apparent KD of MS2 coat protein value belongs to UGAUGUACUCAGGAUAUGAGUAGCUUUCGAGCAUCAGAAGGGAGUACAUGAGGAUCACCCAUGUUGGCCAUGUU [EX6 C.9] (Eterna round: R97, puzzle: Exclusion 6) ?
Response given: 81.2

Challenge: Which apparent KD of MS2 coat protein value belongs to CAUUUCAGUCGGAGAUCCAACAUGAGGAUCACCCAUGUCUCUAAAGCUUUUUGCUCGUCUUAUCCUCCUUUGUUCAC [JR_STOV1_Sub098] (Eterna round: R97, puzzle: Sensor, turn-off variant 1) ?
Response given: 458

Challenge: Which apparent KD of MS2 coat protein value belongs to GCACGAUAUCAGGAUAUGACUAGCUUCGGCUAGUCAGAAGGGAUGACAUGAGGAUCACCCAUGUGAUCACGUGC [E6/1-B1] (Eterna round: R97, puzzle: Exclusion 6) ?
Response given: 79.6

Challenge: Which apparent KD of MS2 coat protein value belongs to UUACGGCGGAUCGUGGCUUUUUGCUCGUCUUGUGCUACAACAUGAGGAUCACCCAUGUAGAGGUGAUCCGUUGUAUU [Grok-var2-19 mod JAL] (Eterna round: R96, puzzle: Sensor v3, turn-off variant 2) ?
Response given: 342

Challenge: Which apparent KD of MS2 coat protein value belongs to GGAAGAGAGAUAGGAUAUUAAAGGAAGAUGGUGAGAGAGACAUGAGGAUCACCCAUGUAAAGGAAUAAGAAGGGUCAGAAGGAA [EXNG2 V2 g] (Eterna round: R96, puzzle: Exclusion NG 2) ?
Response given: 137

Challenge: Which apparent KD of MS2 coat protein value belongs to GUCUAGAGAGGAUAUAUUUACAGUGUACGUCGGAUGAUCGCACUUGAGGAUCACCCAAGUAGAAGGCUCGAGGG [EX2 #31] (Eterna round: R97, puzzle: Exclusion 2) ?
Response given: 875

Challenge: Which apparent KD of MS2 coat protein value belongs to UUAUUAAUUAAGACUGCAAGAUCACAUGAGGAUCACCCAUGUCAGGAUAUCAGCUCGUGUAGAGCUGAGAAGGGACAAGCAGUC [ExNG3/15-A3] (Eterna round: R96, puzzle: Exclusion NG 3) ?
Response given: 314

Challenge: Which apparent KD of MS2 coat protein value belongs to GAAAACGUAGGAUAUUAAUACUUAGACAUGAGGAUCACCCAUGUUUGGUGGGUCGGAGAAUGAGAAGGGCGAUGAA [EX5 #13] (Eterna round: R97, puzzle: Exclusion 5) ?
Response given: 107

Challenge: Which apparent KD of MS2 coat protein value belongs to AGUGUCUUAGGAUAUACAUGAGGAUCACCCAUGUUAACAUUCCUUCGCGGUAUCGCAUGUAGAAGGAGGAUAUG [Eternabot (L1) Solution 68] (Eterna round: R97, puzzle: Exclusion 3) ?
Response given: 33.1

Challenge: Which apparent KD of MS2 coat protein value belongs to AUUAAUGUCAAAGGAUAUCAGCACGUGUAGUGCUGAGAAGGUUGAACAUGAGGAUCACCCAUGUAGAUCAUUAAUAAUUUAAUU [ENG1/10-B3] (Eterna round: R96, puzzle: Exclusion NG 1) ?
Response given: 25.5

Reference source for all entries: the supplement of paper PMC9170038
